assay-target: Transcriptional coactivator YAP1/Transcriptional enhancer factor TEF-1 (Homo sapiens, UniProt P28347)
Sequence (P46937 whole entry): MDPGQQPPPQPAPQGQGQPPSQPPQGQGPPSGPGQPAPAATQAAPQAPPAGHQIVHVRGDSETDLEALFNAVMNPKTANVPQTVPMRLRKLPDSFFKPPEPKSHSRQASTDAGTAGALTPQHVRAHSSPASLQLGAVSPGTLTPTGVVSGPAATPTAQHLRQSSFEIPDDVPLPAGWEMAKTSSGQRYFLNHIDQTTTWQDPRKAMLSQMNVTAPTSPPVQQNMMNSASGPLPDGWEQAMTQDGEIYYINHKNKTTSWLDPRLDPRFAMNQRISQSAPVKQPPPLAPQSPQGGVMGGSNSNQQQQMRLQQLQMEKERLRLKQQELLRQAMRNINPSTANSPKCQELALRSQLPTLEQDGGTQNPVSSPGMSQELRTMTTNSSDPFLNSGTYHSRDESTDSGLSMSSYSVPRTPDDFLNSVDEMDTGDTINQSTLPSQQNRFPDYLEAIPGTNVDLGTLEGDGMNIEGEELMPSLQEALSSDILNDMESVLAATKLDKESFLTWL
Sequence (P28347 whole entry): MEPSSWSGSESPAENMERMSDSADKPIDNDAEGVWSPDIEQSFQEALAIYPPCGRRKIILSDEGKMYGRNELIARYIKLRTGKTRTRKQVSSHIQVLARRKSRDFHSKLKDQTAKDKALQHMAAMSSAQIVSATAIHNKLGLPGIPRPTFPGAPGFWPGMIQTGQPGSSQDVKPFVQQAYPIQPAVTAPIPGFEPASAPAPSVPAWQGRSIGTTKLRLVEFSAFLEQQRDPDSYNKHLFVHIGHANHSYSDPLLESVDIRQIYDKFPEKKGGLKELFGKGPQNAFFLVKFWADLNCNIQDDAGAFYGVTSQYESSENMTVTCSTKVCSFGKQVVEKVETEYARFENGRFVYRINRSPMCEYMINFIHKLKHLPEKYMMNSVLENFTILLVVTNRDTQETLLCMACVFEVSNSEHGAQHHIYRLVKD
assay-method-text: Inhibition of YAP/ GST-TEAD1 interaction in human Bel-7404 cells […]
Where a SMILES comes first, the peptide text is derived from it. Bridges are numbered along the chain shown (N, C = ends). [ ]: non-standard residue; d: D form. hCys = N[C@@H](CCS)C(=O)O; Nle = CCCC[C@H](N)C(=O)O

{"columns": ["compound", "Kd / nM"],
 "data": [
  ["CCCC[C@@H]1NC(=O)[C@H](CCCCN)NC(=O)[C@H](CCCNC(=N)N)NC(=O)[C@H](CC(C)C)NC(=O)[C@@H](NC(=O)[C@H](CCSC)NC(=O)[C@@H]2CCCN2C(=O)[C@@H](NC(C)=O)C(C)C)CCSSC[C@@H](C(=O)N[C@@H](CCCCN)C(=O)N2CCC[C@H]2C(=O)N2CCC[C@H]2C(=O)N[C@@H](CCC(=O)O)C(N)=O)NC(=O)[C@H](Cc2ccccc2)NC(=O)[C@H](CO)NC(=O)[C@H](CC(=O)O)NC(=O)[C@@H]2CCCN2C1=O (Ac-VPM[hCys]LRK[Nle]PDSFCKPPE-NH2; disulfide 4-13)", 211]
]}
